# maps each entry to its protein stability index
# assay.procedure: protein stability index of a GFP-peptide fusion (yeast GPS) (PSI 1-4); higher = more stable; sorted into four equal gates, so the index is relative within each strain
# condition.description: ubr1∆

[
  {
    "residue.string": "KNLSLQTGTKPVLKKKA [COR1]",
    "protein stability index": 2.79
  },
  {
    "residue.string": "LIFGTIASKMSLAPEAD [RPT3]",
    "protein stability index": 2.65
  },
  {
    "residue.string": "PGSVNSAAKYKDMKLLR [NUT1]",
    "protein stability index": 2.96
  },
  {
    "residue.string": "NENPYNNGVSNLWKNIF [COR1]",
    "protein stability index": 1.86
  },
  {
    "residue.string": "ANFKTSKKYQLADWRIR [RRP6]",
    "protein stability index": 2.92
  },
  {
    "residue.string": "SDDDNIGQSEELSDKEI [ISW2]",
    "protein stability index": 3.41
  },
  {
    "residue.string": "MTAAVTSSNIVLETHES [RPT6]",
    "protein stability index": 2.48
  },
  {
    "residue.string": "KRKTNIIMFVGLQGSGK [SRP54]",
    "protein stability index": 2.87
  },
  {
    "residue.string": "EFETPTFLVSNDDEVSQ [RPN14]",
    "protein stability index": 2.77
  },
  {
    "residue.string": "FILTIATAFLGYCCVYG [COB]",
    "protein stability index": 1.36
  },
  {
    "residue.string": "PEQGEEPMKQLNATKIS [YAR002W/NUP60]",
    "protein stability index": 2.48
  },
  {
    "residue.string": "PTSPNYSPTSPSYSPTS [RPO21]",
    "protein stability index": 2.97
  },
  {
    "residue.string": "ANSSITPAFGSNNTGNT [YJL041W/NSP1]",
    "protein stability index": 2.87
  },
  {
    "residue.string": "TRVTRLSLQRANVEILA [CSL4]",
    "protein stability index": 2.03
  }
]
